Taken from the supplement of paper PMC10567573.

B1: C22orf15 (parent)
chain: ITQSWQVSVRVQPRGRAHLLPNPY

- Variants of: B1
- procedure_summary: protein stability index of a GFP-peptide fusion (GPS, HEK-293T) (PSI 1-6); higher = more stable;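 also: lentivirally expressed fusions sorted by FACS into six bins by GFP to DsRed ratio, PSI derived from sequencing read proportions per bin multiplied by bin number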
- experimental_setup: c terminus: a fixed tail appended
Lab note: anything with protein stability index at or over 2 counts as 1; the rest go in -1.

For orientation, consider the following solved cases.
ATQSWQVSVRVQPRGRAHLLPNPY :: 1
ITQSWQVSVRDQPRGRAHLLPNPY :: 1
ITQAWQVSVRVQPRGRAHLLPNPY :: 1
ITQSWQVSVRVQPRGRFHLLPNPY :: -1
ITQSWQVSVRVQPRGRWHLLPNPY :: 1

protein stability index >= 2 for `ITQSWQVSVRVMPRGRAHLLPNPY` ? 1

Consider next the variant `IKQSWQVSVRVQPRGRAHLLPNPY` in the same way. -1

Request: `ITQSWIVSVRVQPRGRAHLLPNPY` 1

How about this variant: `IFQSWQVSVRVQPRGRAHLLPNPY` 1
